# Species on record: Rattus norvegicus
# assayComment: Unbound clearance in rat
# Format: ADME, organism-based
# appliedConditions: in vivo
measurementType: CL (mL/min/kg)

Worked examples, 3 compounds total:
>>> observedmeasurement("CC(C)(O)c1cc(Cl)c(Nc2nc3ccncc3c3c(=O)[nH]ccc23)c(Cl)c1")
1115
>>> observedmeasurement("O=c1[nH]ccc2c(Nc3c(F)cc(F)cc3Cl)nc3ccncc3c12")
875
>>> observedmeasurement("O=c1[nH]ccc2c(Nc3c(Cl)cc(C(O)C(F)F)cc3Cl)nc3ccncc3c12 (stereo not given)")
571

[P] O=c1[nH]ccc2c(Nc3c(Cl)cc(-c4ccn[nH]4)cc3Cl)nc3ccncc3c12
[Q] CC(O)c1cc(Cl)c(Nc2nc3ccncc3c3c(=O)[nH]ccc23)c(Cl)c1 (stereo not given)
Recorded CL values differ for P and Q ; which one is higher? // caller expects the label of the chosen entry
P
